Examples of binders with documented Schwann cells (SC) (ErbB3) Avg EC50 follow.
- system.under.test: ErbB3 on rat Schwann cells (rat) (UniProt Q62799)
- Sequence (Q62799 20-1339): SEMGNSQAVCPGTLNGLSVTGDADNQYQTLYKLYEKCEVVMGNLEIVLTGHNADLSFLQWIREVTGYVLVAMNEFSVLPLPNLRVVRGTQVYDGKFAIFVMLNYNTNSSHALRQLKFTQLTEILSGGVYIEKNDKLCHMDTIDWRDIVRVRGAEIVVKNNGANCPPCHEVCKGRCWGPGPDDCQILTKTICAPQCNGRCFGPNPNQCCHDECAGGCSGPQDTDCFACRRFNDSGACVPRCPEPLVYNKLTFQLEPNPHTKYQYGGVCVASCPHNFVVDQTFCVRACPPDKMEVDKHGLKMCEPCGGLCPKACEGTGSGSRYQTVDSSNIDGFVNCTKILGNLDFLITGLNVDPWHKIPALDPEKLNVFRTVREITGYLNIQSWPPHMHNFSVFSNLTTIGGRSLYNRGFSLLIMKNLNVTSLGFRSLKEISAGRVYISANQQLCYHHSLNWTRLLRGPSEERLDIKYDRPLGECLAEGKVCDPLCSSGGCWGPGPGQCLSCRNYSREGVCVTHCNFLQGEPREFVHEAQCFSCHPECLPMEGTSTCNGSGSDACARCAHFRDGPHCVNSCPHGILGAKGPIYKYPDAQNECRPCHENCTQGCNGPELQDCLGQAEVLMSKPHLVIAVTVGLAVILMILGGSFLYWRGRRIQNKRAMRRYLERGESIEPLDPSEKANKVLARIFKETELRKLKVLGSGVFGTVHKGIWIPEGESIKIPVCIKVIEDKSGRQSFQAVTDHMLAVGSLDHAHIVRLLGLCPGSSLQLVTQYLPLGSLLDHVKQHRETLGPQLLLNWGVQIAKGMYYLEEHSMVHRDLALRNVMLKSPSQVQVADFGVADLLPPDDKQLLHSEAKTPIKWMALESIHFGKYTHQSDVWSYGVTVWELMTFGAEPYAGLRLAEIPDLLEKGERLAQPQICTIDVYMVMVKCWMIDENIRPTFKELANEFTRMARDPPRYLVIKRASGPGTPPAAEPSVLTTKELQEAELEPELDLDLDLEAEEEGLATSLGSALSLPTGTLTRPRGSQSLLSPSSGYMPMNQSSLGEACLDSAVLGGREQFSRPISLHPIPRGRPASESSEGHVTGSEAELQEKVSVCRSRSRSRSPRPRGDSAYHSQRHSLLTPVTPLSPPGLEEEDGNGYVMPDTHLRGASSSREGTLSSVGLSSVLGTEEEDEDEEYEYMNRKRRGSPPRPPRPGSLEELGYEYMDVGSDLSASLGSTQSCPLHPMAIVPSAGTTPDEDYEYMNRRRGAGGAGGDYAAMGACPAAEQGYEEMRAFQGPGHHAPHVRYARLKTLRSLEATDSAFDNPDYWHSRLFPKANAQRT
- procedure.summary: cell-based or functional assay
readout.type: Schwann cells (SC) (ErbB3) Avg EC50

>>> result("huNRG1(S177-Q237)(NRGE1E)::GG::huFcSEFL2 (Pb) (Fc fusion) SHLVKCGENDKSFCVNGGECFMIEGPSNPSRYLCKCPNEFTGDRCQNDFMASFYKAEELYQGGDKTHTCPPCPAPELLGGPSVFLFPPKPKDTLMISRTPEVTCVVVDVSHEDPEVKFNWYVDGVEVHNAKTKPCEEQYGSTYRCVSVLTVLHQDWLNGKEYKCKVSNKALPAPIEKTISKAKGQPREPQVYTLPPSREEMTKNQVSLTCLVKGFYPSDIAVEWESNGQPENNYKTTPPVLDSDGSFFLYSKLTVDKSRWQQGNVFSCSVMHEALHNHYTQKSLSLSPGK")
"> 10 µM"
>>> result("huNRG1(S177-Q237)(NRGE1I)::GG::huFcSEFL2 (Pb) (Fc fusion) SHLVKCGENDKSFCVNGGECFMIEGPSNPSRYLCKCPNEFTGDRCQDDFMASFYKAEELYQGGDKTHTCPPCPAPELLGGPSVFLFPPKPKDTLMISRTPEVTCVVVDVSHEDPEVKFNWYVDGVEVHNAKTKPCEEQYGSTYRCVSVLTVLHQDWLNGKEYKCKVSNKALPAPIEKTISKAKGQPREPQVYTLPPSREEMTKNQVSLTCLVKGFYPSDIAVEWESNGQPENNYKTTPPVLDSDGSFFLYSKLTVDKSRWQQGNVFSCSVMHEALHNHYTQKSLSLSPGK")
"> 10 µM"
>>> result("huNRG1(S177-Q237)(NRGE1F)::GG::huFcSEFL2 (Pb) (Fc fusion) SHLVKCAENDKSFCVNGGECYMVEGSSIPSRYLCKCPNEFTGDRCQNDFMASFYKAEELYQGGDKTHTCPPCPAPELLGGPSVFLFPPKPKDTLMISRTPEVTCVVVDVSHEDPEVKFNWYVDGVEVHNAKTKPCEEQYGSTYRCVSVLTVLHQDWLNGKEYKCKVSNKALPAPIEKTISKAKGQPREPQVYTLPPSREEMTKNQVSLTCLVKGFYPSDIAVEWESNGQPENNYKTTPPVLDSDGSFFLYSKLTVDKSRWQQGNVFSCSVMHEALHNHYTQKSLSLSPGK")
"> 10 µM"
